# Method notes: Pharmacokinetic study in male Beagle dogs (IV and PO), plasma
# Type: in vivo, dog
# Stated conditions: male, Beagle; dog plasma, PO, 10 mg/kg; read-out: Cmax (5 min)
Recorded Cmax for the following molecules
Assay readout: Cmax (ng/mL)

> print(dat)
                            chemical.smiles  scale.unit  reported.measurement
1  CN1CCN(CCOc2cnc(N[C@H]3CC[C@@H](Oc4nc(N5CCOCC5)cc5ncccc45)CC3)nc2)CC1       ng/mL                   291
2  CN(C)C(=O)Cn1ccc2nc(N[C@H]3CC[C@@H](Oc4nc(N5CCOCC5)cc5ncccc45)CC3)ncc21       ng/mL                  1540
3  O=C(COc1cnc(N[C@H]2CC[C@@H](Oc3nc(N4CCOCC4)cc4ncccc34)CC2)nc1)N1CCOCC1       ng/mL                  1070
